# protocolSummary: Pharmacokinetics in beagles, single-dose regimen of TRQI (i.v.) or TRQC (oral), plasma LC-MS/MS
# Format: in vivo, beagle
# testSettings: female, beagle, dog, plasma, iv, 0.5 mL/kg, single TRQI 0.5 mL/kg; beagle No 4; read-out: AUC0–24 h
measuredMetric: AUC(0-t) (ng·h/mL)
Your answer should be a plain number; it is taken to be in ng·h/mL.

Prompt line: Suppose we examine the molecule O=C(/C=C/c1ccc(O)c(O)c1)O[C@@H]1C[C@](O)(C(=O)O)C[C@@H](O)[C@H]1O [Chlorogenic acid, chlorogenic acid] ; what AUC(0-t) value has been reported?
Response line: 11.2

Prompt line: Dear colleague, I am looking for the recorded AUC(0-t) of the following molecule: C[C@H](CCC(=O)O)[C@H]1CC[C@H]2[C@@H]3[C@@H](O)C[C@@H]4C[C@H](O)CC[C@]4(C)[C@H]3CC[C@]12C [Ursodeoxycholic acid, ursodeoxycholic acid]
Response line: 898

Prompt line: Entry C[C@H](CCC(=O)O)[C@H]1CC[C@H]2[C@@H]3[C@H](O)C[C@@H]4C[C@H](O)CC[C@]4(C)[C@H]3CC[C@]12C [Chenodeoxycholic acid, chenodeoxycholic acid] : reported AUC(0-t) = ?
Response line: 89

Prompt line: AUC(0-t) lookup needed for O=C(O)[C@H]1O[C@@H](Oc2cc3oc(-c4ccccc4)cc(=O)c3c(O)c2O)[C@H](O)[C@@H](O)[C@@H]1O [Baicalin, baicalin] , thanks.
Response line: 161
